src = paper PMC8637440

- MEASUREMENT_TARGET: 12-LO (Homo sapiens)
- Construct: endogenous in cells; host or cells: platelet impurities in human PMNL preparations
- Sequence (P18054 1-663): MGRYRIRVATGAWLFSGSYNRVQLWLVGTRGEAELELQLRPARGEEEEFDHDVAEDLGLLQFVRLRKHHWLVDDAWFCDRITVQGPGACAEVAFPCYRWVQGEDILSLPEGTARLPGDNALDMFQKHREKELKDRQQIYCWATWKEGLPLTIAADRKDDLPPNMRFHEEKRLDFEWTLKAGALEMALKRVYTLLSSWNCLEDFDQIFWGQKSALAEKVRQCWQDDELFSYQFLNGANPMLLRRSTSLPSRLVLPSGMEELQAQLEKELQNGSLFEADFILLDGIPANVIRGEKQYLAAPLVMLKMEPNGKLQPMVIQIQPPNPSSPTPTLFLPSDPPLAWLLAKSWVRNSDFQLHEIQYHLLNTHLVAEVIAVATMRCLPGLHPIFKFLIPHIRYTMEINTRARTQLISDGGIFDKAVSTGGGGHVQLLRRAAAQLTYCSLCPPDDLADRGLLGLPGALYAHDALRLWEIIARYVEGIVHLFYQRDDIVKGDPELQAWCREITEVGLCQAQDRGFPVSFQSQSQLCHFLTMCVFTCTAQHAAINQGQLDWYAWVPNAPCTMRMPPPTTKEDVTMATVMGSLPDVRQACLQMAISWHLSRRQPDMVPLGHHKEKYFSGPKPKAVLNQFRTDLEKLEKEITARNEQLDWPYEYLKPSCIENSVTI
- ASSAY_REMARKS: 12-HETE formation in intact PMNL preparations, A23187 + 20 µM AA
- Assay type: cell-based
- PROTOCOL_CONDITIONS: 15 min preincubation, A23187 2.5 µM + 20 µM AA, n.i. = no inhibition observed
EXPERIMENTAL_READOUT: PMNL (20 µM AA) 12-HETE IC50

1. CCCCCCCCC=C(CCCCCCCC(=O)O)[N+](=O)[O-] :: n.i.
2. CCCCCCCCCCCC(=CCCCCC(=O)O)[N+](=O)[O-] :: n.i.
3. CCCCCCC=C(CCCCCCCCCC(=O)O)[N+](=O)[O-] :: n.i.
4. CCCCCCCC=C(CCCCCCCCC(=O)O)[N+](=O)[O-] :: n.i.
5. CCCCCCCCCCCC=C(CCCCC(=O)O)[N+](=O)[O-] :: n.i.
6. CCCCCCCCCC(=CCCCCCCC(=O)O)[N+](=O)[O-] :: n.i.
7. CCCCCCCCC(=CCCCCCCCC(=O)O)[N+](=O)[O-] :: n.i.

###

- Test system: Nrf-2
- ASSAY_REMARKS: Nrf-2 induction in HCT-116 cells (Western blot and ELISA)
- Format: cell-based, human
- PROTOCOL_CONDITIONS: 10 µM, 4 h, HCT-116, Western blot and ELISA
Where a name gives a salt, the structure may show the parent alone.
EXPERIMENTAL_READOUT: induction of Nrf-2 (protein levels / signaling)

1. COC(=O)/C=C/C(=O)O [MMF, monomethyl fumarate] :: increase
2. CC(C)(C)c1cc(O)ccc1O [tBHQ, tert-butylhydroquinone] :: increase

###

- MEASUREMENT_TARGET: 12-LO (Homo sapiens, UniProt P18054)
- Construct: endogenous in cells
- ASSAY_REMARKS: 12-HETE formation in intact PMNL, A23187 in absence of AA
- PROTOCOL_CONDITIONS: read-out: PMNL (w/o AA) 12-HETE IC50
pIC50: −log10 of the molar value.
Measured pIC50 of individual entries
EXPERIMENTAL_READOUT: pIC50

1) CCCCCCCCCCC=C(CCCCCCCC(=O)O)[N+](=O)[O-] :: 4.81
2) CCCCCCCCC=C(CCCCCCCC(=O)O)[N+](=O)[O-] :: 5.20

###

- MEASUREMENT_TARGET: 15-LO (Homo sapiens)
- Construct: endogenous in cells
- Sequence (P16050 whole entry): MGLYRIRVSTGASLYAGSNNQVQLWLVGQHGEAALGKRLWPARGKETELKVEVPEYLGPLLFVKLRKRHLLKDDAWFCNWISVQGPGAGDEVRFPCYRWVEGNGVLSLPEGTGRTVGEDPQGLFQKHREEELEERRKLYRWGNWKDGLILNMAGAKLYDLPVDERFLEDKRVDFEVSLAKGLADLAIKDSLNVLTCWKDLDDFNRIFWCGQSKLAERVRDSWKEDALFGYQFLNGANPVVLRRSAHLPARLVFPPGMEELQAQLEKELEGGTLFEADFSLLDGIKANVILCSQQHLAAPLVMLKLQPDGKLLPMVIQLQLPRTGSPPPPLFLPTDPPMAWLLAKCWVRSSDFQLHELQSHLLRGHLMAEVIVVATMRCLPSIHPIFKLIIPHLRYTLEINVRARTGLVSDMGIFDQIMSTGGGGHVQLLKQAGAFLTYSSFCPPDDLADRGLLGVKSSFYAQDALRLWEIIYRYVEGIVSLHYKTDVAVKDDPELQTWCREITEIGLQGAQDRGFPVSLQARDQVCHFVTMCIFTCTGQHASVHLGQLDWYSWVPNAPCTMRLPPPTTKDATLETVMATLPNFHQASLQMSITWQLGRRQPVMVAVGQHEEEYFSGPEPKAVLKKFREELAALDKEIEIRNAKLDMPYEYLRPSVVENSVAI
- ASSAY_REMARKS: 15-HETE formation in intact PMNL preparations, A23187 + 20 µM AA
- PROTOCOL_CONDITIONS: PMNL (20 µM AA) 15-HETE IC50, intact PMNL, 15 min preincubation, A23187 2.5 µM + 20 µM AA; n.i. = no inhibition observed
// values below are reported IC50
EXPERIMENTAL_READOUT: IC50 (µM)

1) CCCCCCCCCCC=C(CCCCCC(=O)O)[N+](=O)[O-] :: 7.6
2) CCCCCCCC=C(CCCCCCCCC(=O)O)[N+](=O)[O-] :: 19.6
3) CCCCCCC=C(CCCCCCCCCC(=O)O)[N+](=O)[O-] :: 26
4) CCCCCCCCCCCC=C(CCCCC(=O)O)[N+](=O)[O-] :: 14.8
5) CCCCCCCCCCC=C(CCCCCCCC(=O)O)[N+](=O)[O-] :: 21.2
6) CCCCCCCCCC(=CCCCCCCC(=O)O)[N+](=O)[O-] :: 23.4
7) CCCCCCCCCCCCC=C(CCCC(=O)O)[N+](=O)[O-] :: 8.9
8) CCCCCCCCC(=CCCCCCCCC(=O)O)[N+](=O)[O-] :: 20.5
9) CCCCCCCCCC=C(CCCCCCC(=O)O)[N+](=O)[O-] :: 16
10) CCCCCCCCCCCC(=CCCCCC(=O)O)[N+](=O)[O-] :: 17.3
11) CCCCCCCCCCCCCC=C(CCC(=O)O)[N+](=O)[O-] :: 7.7

###

- MEASUREMENT_TARGET: r5LO-wt (Homo sapiens, UniProt P09917)
- Sequence (P09917 1-674): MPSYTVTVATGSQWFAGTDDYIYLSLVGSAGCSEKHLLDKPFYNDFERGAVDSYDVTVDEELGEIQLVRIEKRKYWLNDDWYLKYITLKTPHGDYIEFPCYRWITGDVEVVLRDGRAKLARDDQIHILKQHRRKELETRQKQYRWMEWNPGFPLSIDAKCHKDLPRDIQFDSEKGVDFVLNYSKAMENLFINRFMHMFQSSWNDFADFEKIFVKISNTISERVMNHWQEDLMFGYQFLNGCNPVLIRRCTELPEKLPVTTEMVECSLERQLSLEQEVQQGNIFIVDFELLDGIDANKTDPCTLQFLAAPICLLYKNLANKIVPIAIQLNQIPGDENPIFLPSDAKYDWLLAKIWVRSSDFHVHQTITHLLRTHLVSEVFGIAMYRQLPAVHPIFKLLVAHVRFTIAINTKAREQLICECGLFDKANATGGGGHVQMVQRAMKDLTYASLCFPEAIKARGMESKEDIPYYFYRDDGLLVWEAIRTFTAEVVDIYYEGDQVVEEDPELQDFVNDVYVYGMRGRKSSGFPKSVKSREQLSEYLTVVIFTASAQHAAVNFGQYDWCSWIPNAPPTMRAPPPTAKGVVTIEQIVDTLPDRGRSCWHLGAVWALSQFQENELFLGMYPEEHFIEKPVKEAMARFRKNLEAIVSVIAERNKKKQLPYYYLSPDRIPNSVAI
- ASSAY_REMARKS: Recombinant 5-LO activity assay (5-HETE)
- Type: biochemical
- PROTOCOL_CONDITIONS: 3 µg r5LO-wt, 15 min on ice, 1 mM CaCl2 + 20 µM AA; n.i. = no inhibition observed
log10(IC50) values, listed per item
EXPERIMENTAL_READOUT: log10(IC50) (log10 of the value in nM)

1. CCCCCCC=C(CCCCCCCCCC(=O)O)[N+](=O)[O-] [18.11.11, 11-nitro-octadec-11-enoic acid] :: 2.90
2. CCCCC=C(CCCCCCCC(=O)O)[N+](=O)[O-] [14.9.9, 9-nitro-tetradec-9-enoic acid] :: 4.25
3. CCCCCCCCCC=C(CCCCCCC(=O)O)[N+](=O)[O-] [18.8.8, 8-nitro-octadec-8-enoic acid] :: 3.34
4. CCCCCCCCCCCCC=C(CCCC(=O)O)[N+](=O)[O-] [18.5.5, 5-nitro-octadec-5-enoic acid] :: 2.60
5. CCC=C(CCCCCCCC(=O)O)[N+](=O)[O-] [12.9.9, 9-nitro-dodec-9-enoic acid] :: 4.88
6. CCCCCCCCCCCC=C(CCCCC(=O)O)[N+](=O)[O-] [18.6.6, 6-nitro-octadec-6-enoic acid] :: 3.00
7. CCCCCCCCCCCC(=CCCCCC(=O)O)[N+](=O)[O-] [18.6.7, 7-nitro-octadec-6-enoic acid] :: 3.04
8. CCCCCCCCCC(=CCCCCCCC(=O)O)[N+](=O)[O-] [18.8.9, 9-nitro-octadec-8-enoic acid] :: 3.28
9. CCCCCCCC=C(CCCCCCCCC(=O)O)[N+](=O)[O-] [18.10.10, 10-nitro-octadec-10-enoic acid] :: 3.20
10. CCCCCCC=C(CCCCCCCC(=O)O)[N+](=O)[O-] [16.9.9, 9-nitro-hexadec-9-enoic acid] :: 3.52
11. CCCCCCCCC(=CCCCCCCCC(=O)O)[N+](=O)[O-] [18.9.10, 10-nitro-octadec-9-enoic acid] :: 3.20
12. CCCCCCCCC=C(CCCCCCCC(=O)O)[N+](=O)[O-] [18.9.9, 9-nitro-octadec-9-enoic acid] :: 3.04
13. CCCCCCCCCCC=C(CCCCCC(=O)O)[N+](=O)[O-] [18.7.7, 7-nitro-octadec-7-enoic acid] :: 2.78
14. CCCCCCCCCCCCCC=C(CCC(=O)O)[N+](=O)[O-] [18.4.4, 4-nitro-octadec-4-enoic acid] :: 2.60
15. CCCCCCCCCCC=C(CCCCCCCC(=O)O)[N+](=O)[O-] [20.9.9, 9-nitro-eicos-9-enoic acid] :: 2.95
